Just for reference, ChEMBL document CHEMBL4680303 is where these values come from.

Test system: Staphylococcus aureus
Experiment: Antibacterial activity against Staphylococcus aureus NBRC13276 assessed as bacterial cell density at 500 uM relative to control
Format: functional
The entries below are paired with their reported Activity.
Express it in %; write the number only.

Answered examples (5):
smilesNotation	measuredOn	Activity [%]
Nc1nc2c(ncn2[C@@H]2O[C@@H]3COP(=O)(O)O[C@H]4[C@@H](O)[C@H](n5cnc6c(=O)[nH]c(N)nc65)O[C@@H]4COP(=O)(O)O[C@H]3[C@H]2O)c(=O)[nH]1	Staphylococcus aureus	106
CC(=O)NCCNCCNC(=O)Cn1cnc2c(=O)[nH]c(N)nc21	Staphylococcus aureus	100
Nc1nc2c(ncn2CC(=O)NCCN(CCNC(=O)Cn2cnc3c(=O)[nH]c(N)nc32)CC(=O)O)c(=O)[nH]1	Staphylococcus aureus	99
CC(=O)N(CCNC(=O)Cn1cnc2c(=O)[nH]c(N)nc21)CCNC(=O)Cn1cnc2c(=O)[nH]c(N)nc21	Staphylococcus aureus	108
Nc1nc2c(ncn2CC(=O)NCCNCCNC(=O)Cn2cnc3c(=O)[nH]c(N)nc32)c(=O)[nH]1	Staphylococcus aureus	102

Which Activity value belongs to Nc1nc2c(ncn2CC(=O)N2CCNCCN(C(=O)Cn3cnc4c(=O)[nH]c(N)nc43)CC2)c(=O)[nH]1 ?
103

Which Activity value belongs to Nc1nc2c(ncn2CC(=O)N2CCN(CC(=O)O)CCN(C(=O)Cn3cnc4c(=O)[nH]c(N)nc43)CCN(CC(=O)O)CC2)c(=O)[nH]1 ?
117

###

Test system: Pseudomonas aeruginosa
Assay: Antibiofilm activity against Pseudomonas aeruginosa NBRC13275 assessed as inhibition of biofilm formation at 500 uM incubated for 6 hrs by crystal violet staining based microtiter plate reader assay relative to control; values are per cent of control
Conditions: NBRC13275, 6 h
recordedMetric: biofilm formation (% of control) at 500 µM (%)
Express it in %; write the number only.

Answered examples (7):
>>> print(df.to_string())
                             smilesnotation  unitinfo  valuemeasured
0  Nc1nc2c(ncn2CC(=O)NCCNCCNC(=O)Cn2cnc3c(=O)[nH]c(N)nc32)c(=O)[nH]1         %             87
1  CC(C)C(=O)N1CCN(C(=O)Cn2cnc3c(=O)[nH]c(N)nc32)CCN(C(=O)C(C)C)CCN(C(=O)Cn2cnc3c(=O)[nH]c(N)nc32)CC1         %            114
2  CC(=O)N(CCNC(=O)Cn1cnc2c(=O)[nH]c(N)nc21)CCNC(=O)Cn1cnc2c(=O)[nH]c(N)nc21         %            104
3  CC(=O)NCCNCCNC(=O)Cn1cnc2c(=O)[nH]c(N)nc21         %             99
4  CC(=O)N1CCN(C(=O)Cn2cnc3c(=O)[nH]c(N)nc32)CCN(C(C)=O)CCN(C(=O)Cn2cnc3c(=O)[nH]c(N)nc32)CC1         %             60
5  Nc1nc2c(ncn2CC(=O)N2CCN(C(=O)OCc3ccccc3)CCN(C(=O)Cn3cnc4c(=O)[nH]c(N)nc43)CCN(C(=O)OCc3ccccc3)CC2)c(=O)[nH]1         %             86
6  Nc1nc2c(ncn2CC(=O)N2CCNCCN(C(=O)Cn3cnc4c(=O)[nH]c(N)nc43)CC2)c(=O)[nH]1         %            105

Which biofilm formation (% of control) at 500 µM value belongs to NCCN(CCNC(=O)Cn1cnc2c(=O)[nH]c(N)nc21)C(=O)Cn1cnc2c(=O)[nH]c(N)nc21 ?
103

###

The entries below are paired with their reported biofilm formation (% of control) at 500 µM.
Test system: Pseudomonas aeruginosa
Assay: Antibiofilm activity against Pseudomonas aeruginosa NBRC13275 assessed as inhibition of biofilm formation at 500 uM incubated for 6 hrs by crystal violet staining based microtiter plate reader assay relative to control; values are per cent of control
Conditions: NBRC13275, 6 h
Express it in %; write the number only.

Answered examples (6):
smilesNotation	unitInfo	valueMeasured
Nc1nc2c(ncn2CC(=O)N2CCN(CC(=O)O)CCN(C(=O)Cn3cnc4c(=O)[nH]c(N)nc43)CCN(CC(=O)O)CC2)c(=O)[nH]1	%	82
Nc1nc2c(ncn2CC(=O)N2CCNCCN(C(=O)Cn3cnc4c(=O)[nH]c(N)nc43)CCNCC2)c(=O)[nH]1	%	85
Nc1nc2c(ncn2[C@@H]2O[C@@H]3COP(=O)(O)O[C@H]4[C@@H](O)[C@H](n5cnc6c(=O)[nH]c(N)nc65)O[C@@H]4COP(=O)(O)O[C@H]3[C@H]2O)c(=O)[nH]1	%	48
CCC(=O)N(CCNC(=O)Cn1cnc2c(=O)[nH]c(N)nc21)CCNC(=O)Cn1cnc2c(=O)[nH]c(N)nc21	%	94
CCC(=O)N1CCN(C(=O)Cn2cnc3c(=O)[nH]c(N)nc32)CCN(C(=O)CC)CCN(C(=O)Cn2cnc3c(=O)[nH]c(N)nc32)CC1	%	76
Nc1nc2c(ncn2CC(=O)NCCN(CCNC(=O)Cn2cnc3c(=O)[nH]c(N)nc32)CC(=O)O)c(=O)[nH]1	%	82

Which biofilm formation (% of control) at 500 µM value belongs to CC(C)C(=O)N(CCNC(=O)Cn1cnc2c(=O)[nH]c(N)nc21)CCNC(=O)Cn1cnc2c(=O)[nH]c(N)nc21 ?
83

###

The entries below are paired with their reported Activity.
Test system: Pseudomonas aeruginosa
Assay: Antibacterial activity against Pseudomonas aeruginosa NBRC13275 assessed as bacterial cell density at 500 uM relative to control
Type: functional
Express it in %; write the number only.

>>> print(df.to_string())
                             smilesnotation  recordedmetric  valuemeasured
0  NCCN(CCNC(=O)Cn1cnc2c(=O)[nH]c(N)nc21)C(=O)Cn1cnc2c(=O)[nH]c(N)nc21        Activity            116
1  CC(C)C(=O)N(CCNC(=O)Cn1cnc2c(=O)[nH]c(N)nc21)CCNC(=O)Cn1cnc2c(=O)[nH]c(N)nc21        Activity             98
2  Nc1nc2c(ncn2CC(=O)N2CCNCCN(C(=O)Cn3cnc4c(=O)[nH]c(N)nc43)CCNCC2)c(=O)[nH]1        Activity            100
3  CC(=O)N(CCNC(=O)Cn1cnc2c(=O)[nH]c(N)nc21)CCNC(=O)Cn1cnc2c(=O)[nH]c(N)nc21        Activity            119

Which Activity value belongs to Nc1nc2c(ncn2CC(=O)N2CCNCCN(C(=O)Cn3cnc4c(=O)[nH]c(N)nc43)CC2)c(=O)[nH]1 ?
105

Which Activity value belongs to CC(=O)N1CCN(C(=O)Cn2cnc3c(=O)[nH]c(N)nc32)CCN(C(C)=O)CCN(C(=O)Cn2cnc3c(=O)[nH]c(N)nc32)CC1 ?
90

Which Activity value belongs to CC(=O)NCCNCCNC(=O)Cn1cnc2c(=O)[nH]c(N)nc21 ?
119

Which Activity value belongs to Nc1nc2c(ncn2CC(=O)N2CCN(CC(=O)O)CCN(C(=O)Cn3cnc4c(=O)[nH]c(N)nc43)CCN(CC(=O)O)CC2)c(=O)[nH]1 ?
90

Which Activity value belongs to Nc1nc2c(ncn2CC(=O)NCCN(CCNC(=O)Cn2cnc3c(=O)[nH]c(N)nc32)CC(=O)O)c(=O)[nH]1 ?
126

###

Test system: Staphylococcus aureus
Assay: Antibiofilm activity against Staphylococcus aureus NBRC13276 assessed as inhibition of biofilm formation at 500 uM incubated for 24 hrs by crystal violet staining based microtiter plate reader assay relative to control; values are per cent of control
Settings: NBRC13276, 24 h
Lab note: cut-off is 90%. Strictly less in biofilm formation (% of control) at 500 µM is condition met. Exactly 90% or more is condition not met.

Worked cases, answers included:
smilesNotation	assignedCategory
Nc1nc2c(ncn2CC(=O)NCCNCCNC(=O)Cn2cnc3c(=O)[nH]c(N)nc32)c(=O)[nH]1	condition met
CC(C)C(=O)N(CCNC(=O)Cn1cnc2c(=O)[nH]c(N)nc21)CCNC(=O)Cn1cnc2c(=O)[nH]c(N)nc21	condition not met
CCC(=O)N1CCN(C(=O)Cn2cnc3c(=O)[nH]c(N)nc32)CCN(C(=O)CC)CCN(C(=O)Cn2cnc3c(=O)[nH]c(N)nc32)CC1	condition met
CCC(=O)N(CCNC(=O)Cn1cnc2c(=O)[nH]c(N)nc21)CCNC(=O)Cn1cnc2c(=O)[nH]c(N)nc21	condition met
CC(=O)NCCNCCNC(=O)Cn1cnc2c(=O)[nH]c(N)nc21	condition not met
Nc1nc2c(ncn2CC(=O)N2CCN(C(=O)OCc3ccccc3)CCN(C(=O)Cn3cnc4c(=O)[nH]c(N)nc43)CCN(C(=O)OCc3ccccc3)CC2)c(=O)[nH]1	condition met

Given the entry Nc1nc2c(ncn2[C@@H]2O[C@@H]3COP(=O)(O)O[C@H]4[C@@H](O)[C@H](n5cnc6c(=O)[nH]c(N)nc65)O[C@@H]4COP(=O)(O)O[C@H]3[C@H]2O)c(=O)[nH]1 , would its reported biofilm formation (% of control) at 500 µM be below 90%?
condition not met

Given the entry Nc1nc2c(ncn2CC(=O)N2CCN(CC(=O)O)CCN(C(=O)Cn3cnc4c(=O)[nH]c(N)nc43)CCN(CC(=O)O)CC2)c(=O)[nH]1 , would its reported biofilm formation (% of control) at 500 µM be below 90%?
condition met

Given the entry Nc1nc2c(ncn2CC(=O)NCCN(CCNC(=O)Cn2cnc3c(=O)[nH]c(N)nc32)CC(=O)O)c(=O)[nH]1 , would its reported biofilm formation (% of control) at 500 µM be below 90%?
condition met

Given the entry CC(C)C(=O)N1CCN(C(=O)Cn2cnc3c(=O)[nH]c(N)nc32)CCN(C(=O)C(C)C)CCN(C(=O)Cn2cnc3c(=O)[nH]c(N)nc32)CC1 , would its reported biofilm formation (% of control) at 500 µM be below 90%?
condition met

Given the entry CC(=O)N(CCNC(=O)Cn1cnc2c(=O)[nH]c(N)nc21)CCNC(=O)Cn1cnc2c(=O)[nH]c(N)nc21 , would its reported biofilm formation (% of control) at 500 µM be below 90%?
condition met

Given the entry CC(=O)N1CCN(C(=O)Cn2cnc3c(=O)[nH]c(N)nc32)CCN(C(C)=O)CCN(C(=O)Cn2cnc3c(=O)[nH]c(N)nc32)CC1 , would its reported biofilm formation (% of control) at 500 µM be below 90%?
condition met

Given the entry NCCN(CCNC(=O)Cn1cnc2c(=O)[nH]c(N)nc21)C(=O)Cn1cnc2c(=O)[nH]c(N)nc21 , would its reported biofilm formation (% of control) at 500 µM be below 90%?
condition met
